I'd be grateful if you could share measured growth for these entries.
Tested on: MDA-MB-468 breast
experiment summary: NCI-60 one-dose screen, 48 h (100 = growth as untreated, 0 = no growth, -100 = all killed)
assay context: 10 µM unless noted
The panel holds about 83,000 compounds, 20% with a hit somewhere; the sample as a whole holds those more often.
Give just the number in %; leave the unit off.

Fill blank: measured growth of the compound O=C1CCCCCCCCC(O)C(O)CCCC(c2cccs2)O1 (stereo not drawn) is ____.
95.5

Fill blank: measured growth of the compound O/N=C1\c2ccccc2-c2ccc(Br)cc21 is ____.
108

Fill blank: measured growth of the compound COc1cc(/C=C/C(=O)N2CCN(C(=O)c3cc(OC)c(OC)c(OC)c3)CC2)ccc1OCCCN1C(=O)c2cccc3cccc(c23)C1=O is ____.
102

Fill blank: measured growth of the compound C=C1C(=O)O[C@H]2[C@H]1CC/C(COC(=O)NCc1ccc(OC)cc1)=C\CC[C@@]1(C)O[C@@H]21 is ____.
27.7

Fill blank: measured growth of the compound Cc1ccc(NC(=O)c2ccc(CN3CC[C@H](N(C)C)C3)c(C(F)(F)F)c2)cc1Nc1nccc(-c2cncnc2)n1 is ____.
-36.5

Fill blank: measured growth of the compound Cc1cc2c(-c3nc4ccccn4c3Nc3cccc4ccccc34)c(O)c(O)cc2c(O)c1-c1c(C)cc2c(-c3nc4ccccn4c3Nc3cccc4ccccc34)c(O)c(O)cc2c1O is ____.
17.4

Fill blank: measured growth of the compound O=C(N/N=C\c1ccccc1S(=O)(=O)O)N/N=C/c1ccccc1S(=O)(=O)O is ____.
101

Fill blank: measured growth of the compound Clc1cccc(Nc2nc(Nc3cnc4ccccc4c3)c3[nH]cnc3n2)c1 is ____.
86

* * *

Test system: MDA-MB-468 breast
experiment summary: NCI-60 one-dose screen, 48 h
assay context: 10 µM unless noted
About 83,000 compounds went through this panel and 20% of them were active in at least one assay; those are over-represented in the sample as a whole. Calls of active or inactive are those of the source. The calls were made as follows: active = growth percent below 10; inactive = the rest.
The reply should be one of these categories: active, inactive

Check the results log: what was the call for O=C1NN(C(=O)c2ccc(Cl)cc2)C(c2ccccc2)=N/C1=C\c1ccc(F)cc1 ?
inactive

Check the results log: what was the call for C=CCc1cc(Cl)cc2c(OC(C)=O)c(C(C)=O)c(-c3ccccc3)nc12 ?
inactive

Check the results log: what was the call for O=[N+]([O-])c1ccc2[nH]c(=S)n(/C=C(/c3ccc(Cl)cc3Cl)S(=O)(=O)Cc3ccc(Cl)cc3Cl)c2c1 ?
inactive

Check the results log: what was the call for C=C1c2nc3ccccc3n2C=C(c2cccc(Cl)c2)N1Cc1ccc(OC)cc1 ?
inactive

Check the results log: what was the call for OC(CNC1CCCC1)Cn1c2ccccc2c2ccccc21 (centres undefined) ?
active

Check the results log: what was the call for CCCCCc1c(C)[nH]c(/C=c2\[nH]/c(=C3/C=c4ccccc4=N3)cc2OC)c1C ?
active

Check the results log: what was the call for CCCCCCCNC(=O)CCCNc1ncnc2c1ncn2-c1cccc(C(C)O)c1 (centres undefined) ?
inactive

Check the results log: what was the call for CCN1C(=O)N(CC)C2Nn3c(s/c(=C\c4ccc(Cl)cc4Cl)c3=O)=NC21 (centres undefined) ?
inactive

Check the results log: what was the call for COc1cc2c(c(OC)c1OC)CCC(c1cccc(C(=O)Nc3ccc(C#N)cc3)c1)O2 (centres undefined) ?
inactive

Check the results log: what was the call for Nc1nc(Cl)cc(=O)n1Cc1ccccc1 ?
inactive

Check the results log: what was the call for Cc1onc(-c2ccccc2Cl)c1C(=O)Cl ?
inactive

Check the results log: what was the call for CCN(CC)CCN1C(=O)c2c(c(C)c3c(oc4cc(O)ccc43)c2C)C1=O ?
inactive

Check the results log: what was the call for CC(C)(C)Nc1nc2c(OCCc3ccccc3)cccn2c1-c1cccc(F)c1 ?
active

Check the results log: what was the call for COc1ccc(C2=NN(C(=O)c3ccc(S(C)(=O)=O)cc3)C(c3ccc(OC)c(OC)c3)C2)c(OC)c1 (centres undefined) ?
inactive

Check the results log: what was the call for C#CCN(CCCOc1ccc(Cl)cc1Cl)CCCSC(=O)CCCCCN1/C(=C\C=C2/CCCC(/C=C/C3=[N+](CCCCCC(=O)[O-])c4ccccc4C3(C)C)=C2Cl)C(C)(C)c2ccccc21 ?
inactive

Check the results log: what was the call for CCOC(=O)CC1CSC(c2cccc(Cl)c2)=N1 (centres undefined) ?
inactive

Check the results log: what was the call for O=C(O)C1CCC(=O)N1C(=O)OCc1ccccc1 (centres undefined) ?
inactive

Check the results log: what was the call for C[C@]12CC[C@@H]3c4ccc(OS(=O)(=O)O)cc4CC[C@H]3[C@@H]1CC[C@@H]2NS(=O)(=O)c1ccc(-c2ccccc2)cc1 ?
inactive

Check the results log: what was the call for Cc1cc(=O)oc2cc(Oc3nc(-c4ccc(Cl)cc4)cn4c(-c5ccc(Cl)cc5)cnc34)ccc12 ?
inactive

* * *

Tested on: MDA-MB-468 breast
experiment summary: NCI-60 one-dose screen, 48 h (100 = growth as untreated, 0 = no growth, -100 = all killed)
assay context: 10 µM unless noted
Compounds without any hit were thinned out: in the full panel of roughly 83,000, 20% have a hit.
Could you please classify the records by growth using these ranges: lower segment = under 30%, middle segment = from 30% up to 60%, upper segment = 60% and over

Pick a category. Item: NC(CCl)=NCCC[C@H](N)C(=O)O
upper segment

Pick a category. Item: CC(O)CN1CCCCC1 (stereo not given)
upper segment

Pick a category. Item: O=C1C=CC2(NN=C(c3ccccc3)N2c2ccccc2)c2cccc(O)c21 (stereo not given)
middle segment

Pick a category. Item: CC(C)(Sc1cc(C(C)(C)C)c(O)c(C(C)(C)C)c1)Sc1cc(C(C)(C)C)c(OC(=O)CCCC(=O)O)c(C(C)(C)C)c1
middle segment

Pick a category. Item: CN(C)CCC(=O)c1ccc([N+](=O)[O-])cc1
upper segment

Pick a category. Item: O=S(=O)(NCCNc1nccc(-c2c(-c3cccc(F)c3)nc3sccn23)n1)c1ccc(Cl)cc1
upper segment

Pick a category. Item: COc1ccc2c(c1)CCc1[nH]nc(-c3cc(OC)c(OC)c(OC)c3)c1-2
lower segment

Pick a category. Item: Nc1ncc(-c2cnn(C3CCNCC3)c2)cc1-c1nc2cc(Cl)ccc2o1
lower segment

Pick a category. Item: CCCCCCCCCc1cc[n+](CC(=O)c2ccc([N+](=O)[O-])cc2)cc1
lower segment

Pick a category. Item: COc1cc(C[C@H]2COc3cc(O)cc(O)c3C2=O)ccc1O
lower segment

* * *

Tested on: UACC-257 melanoma
experiment summary: NCI-60 one-dose screen, 48 h
assay context: 10 µM
The panel holds about 83,000 compounds, 20% with a hit somewhere; the sample as a whole holds those more often. Active and inactive are the calls of the source. How the source made its calls: active means growth percent below 10; inactive means the rest.
The reply should be one of these categories: active, inactive

Check the results log: what was the call for COc1ccc(OC)c(-n2cc(C#N)c(N)c2C(=O)c2ccc(Cl)cc2Cl)c1 ?
inactive

Check the results log: what was the call for Cc1ccc2sc3c(c2c1)Oc1nc[nH]c(=O)c1C3c1cccc(F)c1 (stereo not drawn) ?
inactive

Check the results log: what was the call for O=C(c1ccc(Cl)cc1)C(c1c[nH]c2ccccc12)c1c[nH]c2ccccc12 ?
active

Check the results log: what was the call for O=C(c1ccc(F)cc1)C(c1c[nH]c2ccccc12)c1c[nH]c2ccccc12 ?
inactive

Check the results log: what was the call for O=C(Nc1ccc(OCC(=O)c2ccc(Cl)cc2)cc1)Nc1ccc(Cl)c(C(F)(F)F)c1 ?
inactive

Check the results log: what was the call for CCOC(=O)c1ccc(NC(=O)CSC(CC(=O)c2sc(Nc3ccccn3)nc2C)c2ccccc2F)cc1 (stereo not drawn) ?
inactive

Check the results log: what was the call for O=C(CSc1nc2ccccc2c(=O)n1-c1ccc(Cl)cc1)Nc1ccc(-c2nc3ccccc3[nH]2)cc1 ?
inactive

Check the results log: what was the call for O=C(CN1CCN(c2ncnc3c2cnn3-c2ccccc2)CC1)Nc1ccc(Cl)cc1 ?
inactive

Check the results log: what was the call for O=C1NC(=S)S/C1=C\c1cn(-c2ccccc2)nc1-c1ccc([N+](=O)[O-])cc1 ?
active

Check the results log: what was the call for CC1(C)CC[C@]2(C(=O)O)CC[C@]3(C)C(=CCC4[C@@]5(C)C[C@@H](O)[C@@H]6OC(c7cccc(F)c7)OC[C@@]6(C)C5CC[C@]43C)C2C1 (stereo partly drawn) ?
inactive

Check the results log: what was the call for C#CCOc1cc(N(CC)CC)ccc1C(C(=O)NC(C)(C)C)N(C(=O)C1CCc2cc(F)ccc2O1)c1ccc(F)cc1F (stereo not drawn) ?
inactive

Check the results log: what was the call for Fc1ccc(-c2csc(Nc3cccc(Nc4nc(-c5ccc(F)cc5)cs4)c3)n2)cc1 ?
inactive

Check the results log: what was the call for Cc1cc(N=C2NC(=O)/C(=C/c3cc(C(C)(C)C)c(O)c(C(C)(C)C)c3)S2)n[nH]1 ?
active

Check the results log: what was the call for Cc1ccc2c(c1)C(=O)/C(=C/c1c[nH]c3ccccc13)S2 ?
inactive

Check the results log: what was the call for O=C(CC(=O)Nc1ccc(Oc2ncnc3scc(Nc4n[nH]c(=S)s4)c23)cc1)Nc1ccc(Cl)cc1 ?
inactive

Check the results log: what was the call for COc1cc(C2CC(c3ccccc3)=Nc3c(N)nc(N)nc3N2)ccc1Oc1nc(NCCO)nc(N2CCOCC2)n1 (stereo not drawn) ?
inactive

Check the results log: what was the call for COc1cc(Nc2nc(O)c(/C=C3\C=Nc4ccccc43)s2)cc(OC)c1OC ?
active

Check the results log: what was the call for Cn1cc(-c2nnc(N)nc2-c2c[nH]c3ccc(F)cc23)c2cc(Br)cnc21 ?
inactive

Recorded values, source PubChem BioAssay (NCI).
